TESTED_SYSTEM: CDK2/cycA1 (Homo sapiens)
ASSAY_TEXT: In vitro kinase assay (PKLight luciferase ATP readout), CDK2
CONDITIONS: ATP at Km; read-out: In vitro Kinase Inhibition CDK2 IC50
Where a name gives a salt, the structure may show the parent alone.
Form field: IC50 (one value per entry).

COMPOUND	IC50 (nM)
CC(C)c1cnn2c(NCc3ccccc3)cc(N[C@H]3CNCC[C@@]3(O)CO)nc12	1030
CC(C)c1cnn2c(NCc3ccccc3)cc(N[C@@H]3CN[C@H](CO)C3)nc12 [PPDA-026, hydrochloride]	203
CC(C)c1cnn2c(NCc3ccncc3)cc(NC[C@@]3(CO)CCNC3)nc12 (racemic)	22
CC(C)c1cnn2c(NCC3CCCCC3)cc(NC[C@]3(O)CCNC[C@H]3O)nc12 (racemic)	481
CC(C)c1cnn2c(Nc3ccc(N4CCN(C)CC4)cc3)cc(NC[C@H]3CCNC[C@@H]3O)nc12 [PPDA-007, hydrochloride]	503
CC(C)c1cnn2c(NC(=O)C3CCNCC3)cc(NC[C@H]3CCNC[C@@H]3O)nc12 [PPDA-009, hydrochloride]	459
CC(C)c1cnn2c(NCc3ccccc3)cc(N[C@@H]3CNCC[C@]3(O)CO)nc12	106

###

TESTED_SYSTEM: CDK4/cycD1 (Homo sapiens)
Sequence (P11802 whole entry): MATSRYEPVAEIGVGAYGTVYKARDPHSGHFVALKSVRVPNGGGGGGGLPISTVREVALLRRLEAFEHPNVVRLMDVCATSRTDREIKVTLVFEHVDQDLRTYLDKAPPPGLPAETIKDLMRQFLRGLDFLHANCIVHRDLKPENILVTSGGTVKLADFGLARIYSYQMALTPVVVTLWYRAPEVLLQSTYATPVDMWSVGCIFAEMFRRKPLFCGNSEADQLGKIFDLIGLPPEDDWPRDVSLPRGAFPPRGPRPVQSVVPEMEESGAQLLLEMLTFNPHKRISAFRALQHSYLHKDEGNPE
Sequence (P24385 whole entry partner): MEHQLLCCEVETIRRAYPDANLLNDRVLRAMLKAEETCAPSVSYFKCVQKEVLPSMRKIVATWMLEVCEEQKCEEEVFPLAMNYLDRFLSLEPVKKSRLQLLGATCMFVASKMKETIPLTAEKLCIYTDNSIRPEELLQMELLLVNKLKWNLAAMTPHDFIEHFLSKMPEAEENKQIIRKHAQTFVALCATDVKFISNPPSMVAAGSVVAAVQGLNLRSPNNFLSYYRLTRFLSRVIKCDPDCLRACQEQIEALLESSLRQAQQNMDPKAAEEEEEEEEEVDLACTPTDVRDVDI
ASSAY_TEXT: In vitro kinase assay (PKLight luciferase ATP readout), CDK4
CONDITIONS: ATP at Km; three experiments
pIC50: −log10 of the molar value. Structures can show the parent of a compound that is named as a salt.
OBSERVED_PROPERTY: pIC50

COMPOUND	TESTED_SYSTEM	OBSERVED
CC(C)c1cnn2c(NCc3ccccc3)cc(NC[C@H]3CCNC[C@@H]3O)nc12 [PPDA-001, hydrochloride]	CDK4/cycD1 (Homo sapiens)	4.38

###

TESTED_SYSTEM: CDK7/CycH/MAT1 (Homo sapiens, UniProt P50613)
Construct: purchased ProQinase GmbH
Sequence (P50613 whole entry): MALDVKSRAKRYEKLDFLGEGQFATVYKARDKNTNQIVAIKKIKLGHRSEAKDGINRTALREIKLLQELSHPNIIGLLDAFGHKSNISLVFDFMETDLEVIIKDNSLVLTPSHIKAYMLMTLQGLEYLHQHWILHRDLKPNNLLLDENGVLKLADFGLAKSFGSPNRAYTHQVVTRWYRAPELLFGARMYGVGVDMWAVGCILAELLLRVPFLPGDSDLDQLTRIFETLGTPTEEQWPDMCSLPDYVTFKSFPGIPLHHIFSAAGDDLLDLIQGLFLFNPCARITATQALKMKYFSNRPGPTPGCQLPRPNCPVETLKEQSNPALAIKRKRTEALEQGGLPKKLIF
Sequence (P51946 whole entry partner): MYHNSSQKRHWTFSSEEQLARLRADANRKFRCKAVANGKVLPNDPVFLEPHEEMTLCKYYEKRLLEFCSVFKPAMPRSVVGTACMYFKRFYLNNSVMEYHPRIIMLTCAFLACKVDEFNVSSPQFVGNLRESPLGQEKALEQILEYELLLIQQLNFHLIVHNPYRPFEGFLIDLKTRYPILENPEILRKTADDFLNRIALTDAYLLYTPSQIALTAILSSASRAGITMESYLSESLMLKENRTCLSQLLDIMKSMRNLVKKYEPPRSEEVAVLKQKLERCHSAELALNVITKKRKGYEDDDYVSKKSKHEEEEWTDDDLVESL
Sequence (P51948 whole entry partner): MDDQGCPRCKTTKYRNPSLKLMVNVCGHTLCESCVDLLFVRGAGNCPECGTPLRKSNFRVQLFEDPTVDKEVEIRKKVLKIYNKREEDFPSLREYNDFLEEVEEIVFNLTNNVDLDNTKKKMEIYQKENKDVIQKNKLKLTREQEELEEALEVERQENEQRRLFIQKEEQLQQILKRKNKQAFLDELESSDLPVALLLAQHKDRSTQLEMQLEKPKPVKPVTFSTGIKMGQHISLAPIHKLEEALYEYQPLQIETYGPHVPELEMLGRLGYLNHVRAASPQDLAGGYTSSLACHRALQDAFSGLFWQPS
ASSAY_TEXT: In vitro kinase assay (PKLight luciferase ATP readout), CDK7
Type: biochemical
CONDITIONS: ratio of CDK2 IC50 to CDK7 IC50
Structures can show the parent of a compound that is named as a salt.
Form field: Selectivity CDK2/CDK7 (one value per entry).
OBSERVED_PROPERTY: Selectivity CDK2/CDK7

MOLECULE	OBSERVED
CC(C)c1cnn2c(NCc3ccccc3)cc(NCC3(CO)CCNC3)nc12 (racemic) [PPDA-018, hydrochloride]	0.1 fold
CC(C)c1cnn2c(NCc3ccccc3)cc(NC3CNCC[C@]3(O)CO)nc12 (stereo partly shown) [PPDA-025]	1.4 fold
CC(C)c1cnn2c(NCc3ccccc3)cc(NC[C@H]3NCC[C@@H]3O)nc12 [PPDA-031]	0.8 fold
CC(C)c1cnn2c(Nc3ccc(S(=O)(=O)N(C)C)cc3)cc(NC[C@H]3CCNC[C@@H]3O)nc12 [PPDA-005]	0.3 fold

###

TESTED_SYSTEM: CDK7/CycH/MAT1 (Homo sapiens, UniProt P50613)
Construct: purchased ProQinase GmbH
ASSAY_TEXT: In vitro kinase assay (PKLight luciferase ATP readout), CDK7
Type: biochemical
CONDITIONS: ratio of CDK1 IC50 to CDK7 IC50
Where a name gives a salt, the structure may show the parent alone.
OBSERVED_PROPERTY: Selectivity CDK1/CDK7 (fold)

MOLECULE	OBSERVED
CC(C)c1cnn2c(Nc3ccc(S(=O)(=O)N(C)C)cc3)cc(NC[C@H]3CCNC[C@@H]3O)nc12	1.9
CC(C)c1cnn2c(NCc3ccccc3)cc(N[C@H]3CN[C@@H](CO)C3)nc12	93
CC(C)c1cnn2c(NCC3CCCCC3)cc(NCC3(O)CCNCC3)nc12	4.1
CC(C)c1cnn2c(NCc3ccncc3)cc(NC[C@H]3CCNC[C@@H]3O)nc12 [PPDA-003, hydrochloride]	41
CC(C)c1cnn2c(NCc3ccccc3Cl)cc(NC[C@@]3(CO)CCNC3)nc12 (racemic)	2.2
COC[C@H]1C[C@@H](Nc2cc(NCc3ccccc3)n3ncc(C(C)C)c3n2)CN1	14
CC(C)c1cnn2c(NCc3ccccc3)cc(NCC3(CO)CCNC3)nc12 (racemic) [PPDA-018, hydrochloride]	2.9
CC(C)c1cnn2c(NCc3ccncc3)cc(NC[C@@]3(CO)CCNC3)nc12 (racemic)	10

###

TESTED_SYSTEM: CDK7/CycH/MAT1 (Homo sapiens)
Construct: purchased ProQinase GmbH
ASSAY_TEXT: In vitro kinase assay (PKLight luciferase ATP readout), CDK7
Assay type: biochemical
CONDITIONS: ratio of CDK1 IC50 to CDK7 IC50
Where a name gives a salt, the structure may show the parent alone.

COMPOUND	TESTED_SYSTEM	Selectivity CDK1/CDK7 / fold
CC(C)c1cnn2c(NCC3CCCCC3)cc(NC[C@@]3(CO)CCNC3)nc12 (racemic)	CDK7/CycH/MAT1 (Homo sapiens)	2.8
CO[C@@H]1CCNCC1Nc1cc(NCc2ccccc2)n2ncc(C(C)C)c2n1 (some centres unmarked)	CDK7/CycH/MAT1 (Homo sapiens)	20
CC(C)c1cnn2c(NCc3ccncc3)cc(NCC3(O)CCNCC3)nc12 [PPDA-010, hydrochloride]	CDK7/CycH/MAT1 (Homo sapiens)	4.6
CC(C)c1cnn2c(NCc3ccccc3Br)cc(NCC3(O)CCNCC3)nc12	CDK7/CycH/MAT1 (Homo sapiens)	0.2
CC(C)c1cnn2c(NCc3ccccc3)cc(N[C@@H]3CN[C@H](CO)C3)nc12 [PPDA-026, hydrochloride]	CDK7/CycH/MAT1 (Homo sapiens)	1.8
CC(C)c1cnn2c(NCc3ccccc3Cl)cc(NCC3(O)CCNCC3)nc12	CDK7/CycH/MAT1 (Homo sapiens)	0.3
CC(C)c1cnn2c(Nc3ccc(N4CCN(C)CC4)cc3)cc(NC[C@H]3CCNC[C@@H]3O)nc12 [PPDA-007, hydrochloride]	CDK7/CycH/MAT1 (Homo sapiens)	2.5
CC(C)c1cnn2c(NCC3CCCCC3)cc(NC[C@H]3CCNC[C@@H]3O)nc12	CDK7/CycH/MAT1 (Homo sapiens)	1.9

###

TESTED_SYSTEM: CDK2/cycA1 (Homo sapiens, UniProt P24941)
ASSAY_TEXT: In vitro kinase assay (PKLight luciferase ATP readout), CDK2
CONDITIONS: ATP at Km; read-out: In vitro Kinase Inhibition CDK2 IC50
pIC50: −log10 of the molar value. Where a name gives a salt, the structure may show the parent alone.
OBSERVED_PROPERTY: pIC50

COMPOUND	OBSERVED_PROPERTY	OBSERVED
CO[C@H]1CN[C@H](CNc2cc(NCc3ccccc3)n3ncc(C(C)C)c3n2)C1 [PPDA-029]	pIC50	5.55
CC(C)c1cnn2c(Nc3csc4ccccc34)cc(NC[C@H]3CCNC[C@@H]3O)nc12 [PPDA-008]	pIC50	7.38
CC(C)c1cnn2c(NCc3ccccc3Br)cc(NCC3(O)CCNCC3)nc12 [PPDA-012]	pIC50	6.93
CC(C)c1cnn2c(NCc3ccccc3Cl)cc(NC[C@@]3(CO)CCNC3)nc12 (racemic) [PPDA-021]	pIC50	7.66
CC(C)c1cnn2c(NCc3ccccc3)cc(NC[C@H]3NCC[C@@H]3O)nc12 [PPDA-031]	pIC50	6.41
CO[C@@H]1CCNCC1Nc1cc(NCc2ccccc2)n2ncc(C(C)C)c2n1 (some centres unmarked) [PPDA-023]	pIC50	6.35
CC(C)c1cnn2c(NCc3ccccc3)cc(N[C@@H]3CNCC[C@H]3O)nc12 [PPDA-022]	pIC50	6.25
CC(C)c1cnn2c(NCc3ccncc3)cc(NC[C@H]3CCNC[C@@H]3O)nc12 [PPDA-003, hydrochloride]	pIC50	6.94
CC(C)c1cnn2c(NCc3ccccc3)cc(NCC3(CO)CCNC3)nc12 (racemic) [PPDA-018, hydrochloride]	pIC50	9.00
CC(C)c1cnn2c(NCc3ccccc3)cc(N[C@H]3CN[C@@H](CO)C3)nc12 [PPDA-028]	pIC50	6.58
CC(C)c1cnn2c(NCc3ccccc3)cc(NC[C@H]3NC[C@H](O)[C@@H]3O)nc12 [PPDA-032]	pIC50	5.82
CC(C)c1cnn2c(NCC3CCCCC3)cc(NC[C@@]3(CO)CCNC3)nc12 (racemic) [PPDA-019]	pIC50	8.05
COC[C@H]1C[C@@H](Nc2cc(NCc3ccccc3)n3ncc(C(C)C)c3n2)CN1 [PPDA-027]	pIC50	6.17
CC(C)c1cnn2c(NCc3ccccc3)cc(NC[C@@H]3C[C@@H](O)CN3)nc12 [PPDA-030]	pIC50	6.00
CC(C)c1cnn2c(NCC3CCCCC3)cc(NC[C@H]3CCNC[C@@H]3O)nc12 [PPDA-004]	pIC50	5.89
CC(C)c1cnn2c(NCc3ccccc3Cl)cc(NCC3(O)CCNCC3)nc12 [PPDA-011]	pIC50	7.01
CC(C)c1cnn2c(NCc3ccc(C(F)(F)F)cc3)cc(N[C@H]3CNC[C@H]3O)nc12 [PPDA-017]	pIC50	6.12
